Origin of values: patent US20250250357A1

Measurement target: T1, human MSLN-R3 on HEK293T-hMSLN-R3 recombinant cells (human, UniProt Q13421 487-606)
T1 construct: the C-terminal limit is uncertain; also called human MSLN-R3 membrane protein
T1 sequence (Q13421 495-614): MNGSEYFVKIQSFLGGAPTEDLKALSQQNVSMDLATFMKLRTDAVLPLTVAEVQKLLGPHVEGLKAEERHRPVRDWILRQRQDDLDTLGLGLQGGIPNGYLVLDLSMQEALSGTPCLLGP
Test: FACS, HEK293T-hMSLN-R3 cells
Measured property: pEC50
The read-out pEC50 is expressed as -log10 of concentration in moles per litre.

Reference set (4 entries):
{"Binder": "F7.33.24-H8 (scFv, not shown: small tags and cut ends, also called S009-F7.33.24 humanized antibody VH2 + VL2) scFv: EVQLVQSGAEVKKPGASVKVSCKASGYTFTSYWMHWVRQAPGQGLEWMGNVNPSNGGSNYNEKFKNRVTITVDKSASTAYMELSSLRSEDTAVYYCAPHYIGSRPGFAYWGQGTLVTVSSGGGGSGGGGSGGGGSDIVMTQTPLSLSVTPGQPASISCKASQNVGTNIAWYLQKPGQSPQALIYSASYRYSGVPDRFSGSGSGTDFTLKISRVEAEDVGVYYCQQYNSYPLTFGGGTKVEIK", "Measured property": "pEC50", "Meas value": 8.82}
{"Binder": "F7.33.24-H11 (scFv, not shown: small tags and cut ends, also called S009-F7.33.24 humanized antibody VH2a + VL2) scFv: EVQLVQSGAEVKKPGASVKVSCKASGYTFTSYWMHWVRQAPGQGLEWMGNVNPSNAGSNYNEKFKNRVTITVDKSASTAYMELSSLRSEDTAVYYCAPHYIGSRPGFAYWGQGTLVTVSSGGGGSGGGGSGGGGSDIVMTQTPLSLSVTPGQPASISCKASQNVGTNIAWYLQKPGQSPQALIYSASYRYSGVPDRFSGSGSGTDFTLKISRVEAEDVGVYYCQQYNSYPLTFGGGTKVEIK", "Measured property": "pEC50", "Meas value": 9.38}
{"Binder": "F7.33.24-H1 (scFv, not shown: small tags and cut ends, also called S009-F7.33.24 humanized antibody VH1 + VL1) scFv: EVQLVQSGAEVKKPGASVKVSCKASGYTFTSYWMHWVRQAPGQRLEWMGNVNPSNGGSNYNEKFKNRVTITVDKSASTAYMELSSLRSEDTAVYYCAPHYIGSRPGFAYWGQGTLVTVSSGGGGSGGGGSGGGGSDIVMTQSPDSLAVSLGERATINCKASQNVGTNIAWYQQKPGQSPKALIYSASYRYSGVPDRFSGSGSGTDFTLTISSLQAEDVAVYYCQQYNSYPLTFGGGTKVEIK", "Measured property": "pEC50", "Meas value": 8.59}
{"Binder": "F7.33.24-H12 (scFv, not shown: small tags and cut ends, also called S009-F7.33.24 humanized antibody VH2a + VL3) scFv: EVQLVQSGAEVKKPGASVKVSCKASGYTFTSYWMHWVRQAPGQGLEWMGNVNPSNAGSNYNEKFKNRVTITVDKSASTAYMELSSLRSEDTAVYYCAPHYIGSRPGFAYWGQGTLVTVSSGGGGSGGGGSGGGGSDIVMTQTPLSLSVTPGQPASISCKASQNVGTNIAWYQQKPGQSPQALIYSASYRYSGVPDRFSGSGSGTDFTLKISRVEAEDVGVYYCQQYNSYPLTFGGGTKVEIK", "Measured property": "pEC50", "Meas value": 8.90}

Lab note: next binder to report on.
response.value for F7.33.24-H9 (scFv, not shown: small tags and cut ends, also called S009-F7.33.24 humanized antibody VH2 + VL3) scFv: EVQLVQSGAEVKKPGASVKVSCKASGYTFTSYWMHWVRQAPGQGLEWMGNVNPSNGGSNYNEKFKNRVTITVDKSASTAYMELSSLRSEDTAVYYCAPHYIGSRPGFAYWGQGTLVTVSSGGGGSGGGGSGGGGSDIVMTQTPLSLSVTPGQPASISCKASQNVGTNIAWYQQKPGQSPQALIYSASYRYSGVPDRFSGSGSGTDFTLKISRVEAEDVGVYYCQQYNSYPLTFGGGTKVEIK (field: pEC50) = 8.89
